pKd for assorted binders
- Target: T1, EsCas13d, nuclease-dead (Eubacterium siraeum, UniProt B0MS50, R295A;H300A;R849A;H854A)
- T1 sequence: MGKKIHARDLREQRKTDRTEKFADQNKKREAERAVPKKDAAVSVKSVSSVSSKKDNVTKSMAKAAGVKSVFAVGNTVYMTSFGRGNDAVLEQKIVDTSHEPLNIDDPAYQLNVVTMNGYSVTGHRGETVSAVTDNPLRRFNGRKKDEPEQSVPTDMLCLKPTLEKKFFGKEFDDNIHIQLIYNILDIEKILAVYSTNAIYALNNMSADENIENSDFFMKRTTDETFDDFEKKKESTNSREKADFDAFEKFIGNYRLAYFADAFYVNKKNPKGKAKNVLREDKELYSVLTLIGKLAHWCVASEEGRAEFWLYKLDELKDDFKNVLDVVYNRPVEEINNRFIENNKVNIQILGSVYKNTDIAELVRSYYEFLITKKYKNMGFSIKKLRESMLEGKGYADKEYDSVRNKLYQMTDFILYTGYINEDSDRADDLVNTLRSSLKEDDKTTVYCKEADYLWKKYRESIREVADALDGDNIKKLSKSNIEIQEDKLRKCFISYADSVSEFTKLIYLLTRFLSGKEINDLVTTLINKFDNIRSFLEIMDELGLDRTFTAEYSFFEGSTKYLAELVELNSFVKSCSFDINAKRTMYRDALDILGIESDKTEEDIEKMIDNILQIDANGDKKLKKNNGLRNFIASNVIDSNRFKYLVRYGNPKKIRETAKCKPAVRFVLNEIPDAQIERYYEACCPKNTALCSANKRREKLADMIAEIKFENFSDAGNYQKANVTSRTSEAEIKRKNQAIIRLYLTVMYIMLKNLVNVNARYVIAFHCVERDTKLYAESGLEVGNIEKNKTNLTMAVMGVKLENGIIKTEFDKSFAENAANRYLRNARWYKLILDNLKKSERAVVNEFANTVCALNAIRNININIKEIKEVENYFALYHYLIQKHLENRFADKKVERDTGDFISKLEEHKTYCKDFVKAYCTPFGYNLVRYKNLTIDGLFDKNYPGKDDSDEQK
- Method: crRNA (strand 1, pre-loaded); Mg2+; 40 mM Tris-HCl pH 7.5, 150 mM NaCl, 6 mM MgCl2, 1 mM DTT, 0.1% Tween-20, 0.2 mg/ml BSA; 25 C; 10 min per concentration, then washed
- Condition Description: tags: His6-TwinStrep-SUMO cleaved; N-terminal SNAP kept (SNAP-Surface 488); label: 3' end held by stalled T7 RNA polymerase
Scale note: pKd = -log10(concentration in M).

Sample answers from the record:
target 1 MT 5'PFS GUA 3'PFS UCA (mixed) RNA 1: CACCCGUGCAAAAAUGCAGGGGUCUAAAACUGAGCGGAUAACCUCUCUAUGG RNA 2: GGGAAUGGAUCCACAUCUACGAAUUCGUACCAUAGAGAGGUUAUCCGCUCAUCAAGAUCGGAAGAGCACACGU | 7.91
target 1 MT 5'PFS AGA 3'PFS AUA (mixed) RNA 1: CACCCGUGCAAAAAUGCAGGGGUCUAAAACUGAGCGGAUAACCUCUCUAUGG RNA 2: GGGAAUGGAUCCACAUCUACGAAUUCAGACCAUAGAGAGGUUAUCCGCUCAAUAAGAUCGGAAGAGCACACGU | 7.35
target 1 U19G,C22A (mixed) RNA 1: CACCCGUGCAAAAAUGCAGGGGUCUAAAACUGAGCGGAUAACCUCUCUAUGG RNA 2: GGGAAUGGAUCCACAUCUACGAAUUCGUAACAGAGAGAGGUUAUCCGCUCACCGAGAUCGGAAGAGCACACGU | 7.27

Next, consider the following binder.
Check the records and state pKd for target 2 MT 5'PFS AAA 3'PFS UUA (mixed) RNA 1: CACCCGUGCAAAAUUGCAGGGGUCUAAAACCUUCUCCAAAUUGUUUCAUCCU RNA 2: GGGAAUGGAUCCACAUCUACGAAUUCAAAAGGAUGAAACAAUUUGGAGAAGUUAAGAUCGGAAGAGCACACGU
8.25

Values were extracted from paper PMC10786891.
